measurement.description: protein stability index of a GFP-peptide fusion (yeast GPS) (PSI 1-4); higher = more stable; sorted into four equal gates, so the index is relative within each strain
measurement.setup: ubr1∆
assay.metric: protein stability index

> print(dat)
                     sequence.entry  observed.measurement
1          LELMDSKKTGQFNAQGV [POP1]                  3.48
2          PFQVSSFVKETKLHSGD [SRB8]                  2.91
3          PLSLTHRDKNKMDMICR [DIS3]                  3.16
4          RRRDFGAPANKRPRRGL [SMD1]                  3.29
5  AIDHLKAELEKQKSWVP [YIL149C/MLP2]                  2.91
6         GYLFKVSALDKCIKYSE [ECM29]                     2
7          ETALEFLEKEKQLTLLR [SMC4]                  2.92

----------
Form field: protein stability index (one value per entry).
measurement.description: protein stability index of a GFP-peptide fusion (yeast GPS) (PSI 1-4); higher = more stable; sorted into four equal gates, so the index is relative within each strain
measurement.setup: ubr1∆
assay.metric: protein stability index

> print(dat)
                        sequence.entry             assay.metric  observed.measurement
 1           RDEIAKNTELSYDFLPL [RPN12]  protein stability index                  2.32
 2            DRAIRKTCQWYSEHLKP [DIS3]  protein stability index                   3.3
 3           SQLKKSKAQQKTAEQVA [RPL7A]  protein stability index                  2.94
 4            NIRGNTIRQIILPDSLN [SMD1]  protein stability index                  3.27
 5           TMYMEVYTAIYNYCVNK [CDC53]  protein stability index                   1.7
 6            ERLTNSLMMNGRNNGKK [RPS5]  protein stability index                  2.62
 7           LKSLNDIETQLCSMLQE [MED11]  protein stability index                     3
 8           KVAPAPFGAKSTKSNKA [RPL8B]  protein stability index                   2.7
 9            DNLGQTKIIMATNRPDT [RPT4]  protein stability index                  2.67
10            GPAAAIEFEYDPWNKLK [RPB3]  protein stability index                  3.25
11            QNSLLTNTHPNFLSKIR [SNF2]  protein stability index                  2.94
12           NARKVVGASVVVVKNWG [RPS12]  protein stability index                  2.67
13            LDAIDDFIQLKQTAAYR [SSN2]  protein stability index                  3.23
14            ELNQDRLGGDDLRIRIK [SNF5]  protein stability index                  2.91
15          SRRFKNGFQTGSASKAS [RPL37A]  protein stability index                  2.58
16           STSNALKVLSGDEGYNE [SNF12]  protein stability index                   3.5
17            IELTSYESIATYASVTG [RPN7]  protein stability index                  1.15
18           RRIIQNAQQTFHIDHTK [RPO21]  protein stability index                  2.89
19           DGKKHSVFYTILRDYGP [RPO31]  protein stability index                  2.87
20  KRYTSEGTRNRFSYSPP [YMR129W/POM152]  protein stability index                  3.09
21    QRYQDLSQQQKDAQKKD [YIL149C/MLP2]  protein stability index                  2.94
22  TNFKEEITDASLNLQYV [YML103C/NUP188]  protein stability index                  3.06
23  ITDKGTVDGRLYQLFKT [YJL039C/NUP192]  protein stability index                  3.46
24            TSPLYMDPGAPLPVETP [SSN2]  protein stability index                  2.81
25            ELNVDSMDVDDKNSGVK [ITC1]  protein stability index                  1.43
26            ELIALNLSEARLVIKEA [RPB4]  protein stability index                  2.73
27            GTLEYGTCFGGSKLEDM [RET1]  protein stability index                  3.29
28           QRITIPNVCNMKQYRDF [PRP28]  protein stability index                  2.58
29    KAELEKQKSWVPSYIHV [YIL149C/MLP2]  protein stability index                  2.31
30            LQAFGESESTTNVYSKD [RPB3]  protein stability index                  1.72

----------
measurement.description: protein stability index of a GFP-peptide fusion (yeast GPS) (PSI 1-4); higher = more stable; sorted into four equal gates, so the index is relative within each strain
measurement.setup: doa10∆
assay.metric: protein stability index

> print(dat)
                sequence.entry  observed.measurement
 1   VISIVGGHSLEEISFSL [PRP28]                  2.82
 2    PLQGIFHNAVFNSFRRF [QCR8]                  2.67
 3   QTTEGYDPKDALKNACN [RPB11]                  3.28
 4    FEQDSHLRYQPDGVVVH [SNF6]                  3.09
 5  VFLYFEDNAGVIANPKG [RPL23A]                  2.43
 6    TMMTVEEKPDVTYSDVG [RPT1]                  2.58
 7    CRNINRKHRNAQFAGRA [DIS3]                  2.54
 8    TVQSWLCDLFVNGSITD [NUT1]                  1.46
 9   TPKITAAEKSFKPPKNK [SEC65]                   2.9
10    GRVTFIPLNRLSLDSDV [SMC3]                  2.65
11    YASKINRAEGPEELARI [RGR1]                  3.31
12   DELCKLVTCEGSEEKAF [SRP54]                  2.92
13   YGGDGLDPLEMEGNAQP [RPO31]                  3.39
14    SESDLDEDKNFPRSRSR [ESC2]                  2.98
15    QHTTESDNISRKYEISF [RPB2]                  3.16
16   EGNTVLEKGNNPSVKQG [SWP82]                  3.11
17    GHIAKLMATEYQDIEGG [RPB2]                  3.45
18    MVRLKSRYILFEIIFPP [POP5]                  1.47
19    CDDESGDNEYITLRTSG [MCD1]                  3.29
20  ISYKKGAASNRTKFVRS [RPL36A]                  3.06
21    MLWNLAAKKAMYTLSAQ [ASC1]                  2.79
22   FRKVKLRVDEVQGKNLL [RPS1B]                  3.25
23   ELLSMGNAKESKALLRE [SRP72]                  2.98
24   VVLYNYYLGQYYGCLEN [CSN12]                   2.5
25    FTPQEIEYCSAQPSVQS [FAS2]                  2.88
26    SFLDRKRAKEFITTLLK [SIN4]                  2.35
27    NYIENMNEMCKKINAKE [RPN8]                  2.84
28   DVLKVNTLVRPNGTKKA [RPL25]                  2.75
29    NESEKDQWLEEYKKHFP [UBP6]                  3.31
30    IFLSKENSAVAAKEGLA [COR1]                  1.48
31    LKPKLYYEQFRPDLIKE [SIR3]                  3.06
